Biological target: UniProt Q01959
Sequence (Q01959 whole entry): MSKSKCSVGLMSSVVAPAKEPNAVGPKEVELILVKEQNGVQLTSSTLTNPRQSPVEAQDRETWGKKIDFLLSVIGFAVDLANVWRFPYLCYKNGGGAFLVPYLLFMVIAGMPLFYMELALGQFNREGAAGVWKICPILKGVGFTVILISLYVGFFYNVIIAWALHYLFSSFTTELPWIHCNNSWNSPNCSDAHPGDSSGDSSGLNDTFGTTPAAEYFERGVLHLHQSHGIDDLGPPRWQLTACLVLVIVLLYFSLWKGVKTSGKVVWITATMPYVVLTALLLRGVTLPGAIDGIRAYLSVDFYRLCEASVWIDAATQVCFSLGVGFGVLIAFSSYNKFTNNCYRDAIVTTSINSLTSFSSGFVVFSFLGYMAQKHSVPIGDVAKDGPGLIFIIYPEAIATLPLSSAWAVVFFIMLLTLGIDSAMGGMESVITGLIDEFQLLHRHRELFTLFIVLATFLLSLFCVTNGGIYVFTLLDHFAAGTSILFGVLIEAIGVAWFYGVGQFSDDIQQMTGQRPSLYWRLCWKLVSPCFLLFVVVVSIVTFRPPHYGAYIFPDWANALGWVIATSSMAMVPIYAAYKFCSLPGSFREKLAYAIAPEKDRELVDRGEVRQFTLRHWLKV
Test: Compound was tested for inhibition of [125I]RTI-55 binding to dopamine transporter in HEK cells
pKi: −log10 of the molar value.
Use 8 as the dividing line for pKi, with the line itself on the T side and lower values as F.

compound	class_label
CN1C2CCC1C(C(=O)NCCCCNC(=O)C1C(c3ccc(Cl)cc3)CC3CCC1N3C)C(c1ccc(Cl)cc1)C2 (stereo not given)	F
COC(=O)C1C(c2ccc(Cl)cc2)CC2CCC1N2C (stereo not given)	T
CN1C2CCC1C(C(=O)NCCCCCCNC(=O)C1C(c3ccc(Cl)cc3)CC3CCC1N3C)C(c1ccc(Cl)cc1)C2 (stereo not given)	F

For the next question, use this compound.
Confirm if pKi reported for the compound CN1C2CCC1C(C(=O)NCCCNC(=O)C1C(c3ccc(Cl)cc3)CC3CCC1N3C)C(c1ccc(Cl)cc1)C2 (stereo not given) is 8 or above.
F
